Reported TGI values follow for various molecules
Test system: M14 melanoma
method notes: NCI tumour cell line growth inhibition, 48 h

CN(/N=C/c1ccnc2ccccc12)c1ccc([N+](=O)[O-])cc1[N+](=O)[O-]: > 100 µM
OCCSCc1cc2c(O)c(c1)Cc1cc(CSCCO)cc(c1O)Cc1cc(CSCCO)cc(c1O)Cc1cc(CSCCO)cc(c1O)C2: 12.7 µM
COc1ccc(/C=C2\N=C(c3ccccc3)N(Nc3nnc(NN4C(=O)/C(=C/c5ccc(OC)cc5)N=C4c4ccccc4)c4ccccc34)C2=O)cc1: > 100 µM
CC(F)(F)c1cc(F)ccc1-c1sc2cc(O)ccc2c1Oc1ccc(/C=C/C(=O)O)cc1: 25 µM
C[C@@H]1CC[C@H]2C(COC/C=C/COCC3=C(C(F)(F)F)O[C@@H]4O[C@@]5(C)CC[C@H]6[C@H](C)CC[C@@H]3[C@@]46OO5)=C(C(F)(F)F)O[C@@H]3O[C@@]4(C)CC[C@@H]1[C@]32OO4: > 100 µM

Please give the measured TGI for this molecule: O=C(CC1(O)C(=O)Nc2ccc(Br)cc21)c1ccc(C(=O)NCC2CCC3(CC2)OOC2(CCCCC2)OO3)cc1 (configuration not stated) 63.4 µM

Consider next the molecule `Cc1[nH]n(-c2nc3c(c(=O)[nH]2)CCC3)c(=O)c1CCO` in the same way. > 100 µM

###

Reported TGI values follow for various compounds
Test system: DU-145 prostate
method notes: NCI tumour cell line growth inhibition, 48 h
Numeric answer only, unit µM assumed.

Completed entries (count: 5):
CCOc1ccc(N/C(=C(/C(Cl)=C(/Cl)NCCO)[N+](=O)[O-])n2nnc3ccccc32)cc1: 36
C[C@H]1CCC/C=C/[C@@H]2C[C@H](O)C[C@H]2[C@H](O)[C@@H](S(=O)CCN)CC(=O)O1 (some centres undefined): 0.552
COc1ccc(C2C(c3ccccc3)C(=O)N2c2cc(OC)c(OC)c(OC)c2)cc1I (centres undefined): 75.4
CN(C)CCOc1nc2c3cccnc3cc(-c3cccc(Cl)c3)c2c2ncccc12: 4.26
CC1(C)CCCCCCCCCC(C)(CCCO)C1=O (centres undefined): 31

Please give the measured TGI for this compound: Cc1ccc2[nH]c(C(=O)NN3C(=O)CSC34CCCC(C)C4)c(-c3ccccc3)c2c1 (centres undefined) 42.4

Consider next the compound CC(C)=CCC/C(C)=C/CC/C(=C/COP(=O)(OCc1ccc([N+](=O)[O-])o1)N(C)CCCCCl)CC=C(C)C (centres undefined) in the same way. 18.6

Consider next the compound CC1=CCC[C@@](C)(O)[C@@H]2C[C@H]3C(CSc4ccccc4)C(=O)O[C@H]3[C@@H](O2)[C@H](C)CCC1 (some centres undefined) in the same way. 76.6

Consider next the compound `COc1ccc(CNc2nc(NCc3ccc(OC)cc3)nc(NC(C)C)n2)cc1` in the same way. 66

###

Tested on: TK-10 renal
method notes: NCI tumour cell line growth inhibition, 48 h; in the data active = GI50 below about 0.43 µM; inactive = the rest
// classify into active, inactive

Outcome? O=C(CC1(O)C(=O)Nc2ccc(Br)cc21)c1ccc(C(=O)NCC2CCC3(CC2)OOC2(CCCCC2)OO3)cc1 (stereo not given) inactive

Consider next the compound `Cc1ccccc1-n1c(/C=C\c2ccccn2)nc2ccccc2c1=O` in the same way. inactive

Consider next the compound `O=C(NCCCNC(=O)OCc1ccc2c(Br)cc(Br)c(O)c2n1)OCc1ccc2c(Br)cc(Br)c(O)c2n1` in the same way. inactive

Consider next the compound `CCOC(=O)CNC(=O)CCCn1c(=O)c2c3ccccc3n(C)c2n2nnc(-c3ccccc3)c12` in the same way. inactive

Consider next the compound `COc1cccc(Cn2cc3c(c2)-c2oncc2CC3)c1` in the same way. inactive

Consider next the compound `Cc1c2ncccc2nc2[nH]c3ccc(OCCN(C)C)cc3c12` in the same way. inactive

Consider next the compound `CCOC(=O)c1cc2cc(NC(=O)c3cc4cc([N+](=O)[O-])ccc4n3C)ccc2n1C` in the same way. inactive

Consider next the compound `CC[C@@H](C)[C@H]([C@H](CC(=O)N1CCC[C@@H]1[C@@H](OC)[C@H](C)C(=O)N[C@H](Cc1ccccc1)c1nccs1)OC)N(C)C(=O)[C@H](NC(=O)[C@@H](C(C)C)N(C)C)C(C)C` in the same way. active

Consider next the compound `NC(N)=N/N=C/c1cccc(Cl)c1Cl` in the same way. inactive

Consider next the compound `COc1cc2nc(-c3ccc(-n4cncc4-c4ccc(N)cc4)cc3)sc2c(OC)c1OC` in the same way. inactive
